Attribution: patent US12336981B2

The following compounds are shown together with reported pIC50 values.
- test target: NAMPT (Homo sapiens, UniProt P43490)
- Construct: His tag; host or cells: E. coli
- Sequence (P43490 whole entry): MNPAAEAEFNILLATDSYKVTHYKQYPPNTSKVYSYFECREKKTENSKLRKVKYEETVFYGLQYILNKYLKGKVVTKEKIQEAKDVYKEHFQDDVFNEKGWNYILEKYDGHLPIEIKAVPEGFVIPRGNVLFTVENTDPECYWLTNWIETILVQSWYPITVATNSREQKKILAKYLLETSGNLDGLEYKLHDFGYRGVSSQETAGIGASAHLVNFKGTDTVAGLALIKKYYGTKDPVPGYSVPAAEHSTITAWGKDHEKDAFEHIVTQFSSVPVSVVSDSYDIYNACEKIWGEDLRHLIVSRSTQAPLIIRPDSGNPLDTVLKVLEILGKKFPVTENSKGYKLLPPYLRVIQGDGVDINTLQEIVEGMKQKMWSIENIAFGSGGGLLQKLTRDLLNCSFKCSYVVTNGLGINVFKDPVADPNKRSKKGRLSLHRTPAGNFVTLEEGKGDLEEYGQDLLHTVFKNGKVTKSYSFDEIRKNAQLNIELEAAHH
- assay comment: Biochemical inhibition assay: NAMPT enzymatic reaction, NMN quantified by mass spectrometry
- condition details: NAMPT enzymatic reaction; read-out: Biochem IC50
Would you please state pIC50, meaning minus log10 of the concentration in mol/L, as a bare number?

Use these answered entries as a reference point.
COc1cc(Cl)ccc1S(=O)(=O)c1ccc(CNC(=O)c2cc3ccncc3o2)cc1: 8.07
O=C(NCc1ccc(S(=O)(=O)c2ccccc2C(F)(F)F)cc1)c1cc2ccncc2s1: 7.89
Cc1cc(F)cc(S(=O)(=O)c2ccc(CNC(=O)c3cnc4[nH]ncc4c3)cc2)c1: 8.02
O=C(NCc1ccc(S(=O)(=O)c2cccc(C(F)(F)F)c2)cc1)c1cc2cnccc2[nH]1: 8.05
COc1ccc(S(=O)(=O)c2ccc(CNC(=O)c3cc4cnccc4[nH]3)cc2)cc1C: 8.00

**Query** Recorded pIC50 for `O=C(NCc1ccc(S(=O)(=O)c2ccccc2Oc2ccccc2)cc1)c1cnc2nccn2c1` with NAMPT (Homo sapiens, UniProt P43490), please?
**Result** 8.07

**Query** Then `CCCOc1ccc(S(=O)(=O)c2ccc(CNC(=O)c3ccc4nccn4c3)cc2)cc1` ?
**Result** 8.21

###

- test target: NAMPT (Homo sapiens, UniProt P43490)
- Construct: His tag; host or cells: E. coli
- assay comment: Biochemical inhibition assay: NAMPT enzymatic reaction, NMN quantified by mass spectrometry
- condition details: NAMPT enzymatic assay; read-out: Biochem IC50
- Excerpt: Biochemical Inhibition Assay NAMPT Protein Purification Recombinant His-tagged NAMPT was produced in E. coli cells, purified over a Ni column, and further purified over a size-exclusion column by XTAL Biostructures. The NAMPT Enzymatic Reaction […] A mass spectrometry-based assay was used to measure the NAMPT reaction product (NMN) and the internal control (L-Cystathionine). NMN and L-Cystathionine were detected using the services of Biocius Lifesciences with the RapidFire system. […]
assay readout: IC50 (nM)
Use nM as the unit, but write only the number.

O=C(NCc1ccc(S(=O)(=O)c2ccc(OC(F)(F)F)c(F)c2)cc1)c1cc2ccncc2o1: 10
O=C(NCc1ccc(S(=O)(=O)c2cccc(-n3cccn3)c2)cc1)c1cc2ccncc2s1: 1.5
CCCn1cc(S(=O)(=O)c2ccc(CNC(=O)c3cc4cnccc4[nH]3)cc2)cn1: 14.9
O=C(NCc1ccc(S(=O)(=O)c2cccc(C(=O)NC3CCCC3)c2)cc1)c1cnc2nccn2c1: 4.7

Next compound, please.
**Query** Sample `O=C(NCc1ccc(S(=O)(=O)c2cnc3ccc(Cl)cn23)cc1)c1cnc2nccn2c1` — what was its IC50?
**Result** 1.6

###

- test target: NAMPT (Homo sapiens, UniProt P43490)
- Construct: His tag; host or cells: E. coli
- assay comment: Biochemical inhibition assay: NAMPT enzymatic reaction, NMN quantified by mass spectrometry
- condition details: NAMPT enzymatic reaction; read-out: Biochem IC50
Item-by-item account of IC50
# output: bare number, implied unit nM

Solved cases (2 shown):
Cc1cc(C)cc(S(=O)(=O)c2ccc(CNC(=O)c3ccc4nccn4c3)cc2)c1: 6.76
O=C(NCc1ccc(S(=O)(=O)c2cccc(Cl)c2)cc1)c1ccc2nccn2c1: 9.08

Now for the molecule whose IC50 we want.
**Query** Can you share its IC50? I mean this molecule: `CCCCOc1cc(F)ccc1S(=O)(=O)c1ccc(CNC(=O)c2cnc3nccn3c2)cc1`
**Result** 7.3

###

molecules and their reported log10(IC50)
- test target: NAMPT (Homo sapiens)
- Construct: His tag; host or cells: E. coli
- assay comment: Biochemical inhibition assay: NAMPT enzymatic reaction, NMN quantified by mass spectrometry
- condition details: NAMPT enzymatic assay; read-out: Biochem IC50
Short version: log10 scale, IC50, nM.

Cc1cccc(S(=O)(=O)c2ccc(CNC(=O)c3cc4ccncc4o3)cc2)n1: 1.11

Here is the next item to consider.
**Query** May I ask what log10(IC50) has been recorded for `Cc1cncc(S(=O)(=O)c2ccc(CNC(=O)c3cc4ccncc4s3)cc2)n1` ?
**Result** 0.68

###

- test target: NAMPT (Homo sapiens)
- Construct: His tag; host or cells: E. coli
- assay comment: Biochemical inhibition assay: NAMPT enzymatic reaction, NMN quantified by mass spectrometry
- condition details: NAMPT enzymatic assay; read-out: Biochem IC50
Examples of molecules with documented pIC50 follow.
When answering, recall that pIC50 equals minus log10 of the concentration in mol/L, and write that number alone.

See these solved cases before continuing.
CNC(=O)c1cccc(S(=O)(=O)c2ccc(CNC(=O)c3cc4ccncc4o3)cc2)c1: 8.09
CN(C)c1ncc(S(=O)(=O)c2ccc(CNC(=O)c3cnc4[nH]ncc4c3)cc2)cn1: 8.10
CC(C)n1cc(S(=O)(=O)c2ccc(CNC(=O)c3ccc4nccn4c3)cc2)cn1: 8.10
O=C(NCc1ccc(S(=O)(=O)c2ccc(OCC(F)(F)F)c(F)c2)cc1)c1ccc2nccn2c1: 7.82
O=C(NCc1ccc(S(=O)(=O)c2cncc(N3CCCC3)c2)cc1)c1cnc2[nH]ncc2c1: 7.75
O=C(NCc1ccc(S(=O)(=O)c2cnc3ccc(Cl)cn23)cc1)c1cc2ccncc2o1: 8.92
COc1cccc(S(=O)(=O)c2ccc(CNC(=O)c3cnc4nccn4c3)cc2)n1: 8.66
CCN(C)c1ncc(S(=O)(=O)c2ccc(CNC(=O)c3cc4ccncc4s3)cc2)s1: 8.54
O=C(NCc1ccc(S(=O)(=O)c2ccc(C(F)F)c(F)c2)cc1)c1cnc2nccn2c1: 8.09
O=C(NCc1ccc(S(=O)(=O)c2ccc(N3CCCC3)cc2)cc1)c1ccc2cn[nH]c2n1: 8.22

Now consider a different molecule.
**Query** Suppose we examine the molecule `CCS(=O)(=O)c1cccc(S(=O)(=O)c2ccc(CNC(=O)c3cc4ccncc4o3)cc2)c1` ; what pIC50 value has been reported?
**Result** 8.57

###

- test target: NAMPT (Homo sapiens, UniProt P43490)
- Construct: His tag; host or cells: E. coli
- assay comment: Biochemical inhibition assay: NAMPT enzymatic reaction, NMN quantified by mass spectrometry
- condition details: NAMPT enzymatic reaction; read-out: Biochem IC50
assay readout: IC50 (nM)
Enter your answer as a number in nM; do not include the unit.

Examples with answers:
COc1ccc(S(=O)(=O)c2ccc(CNC(=O)c3ccc4nccn4c3)cc2)cc1: 9.74
COc1cc(Cl)cc(S(=O)(=O)c2ccc(CNC(=O)c3cnc4[nH]ncc4c3)cc2)c1: 9.3
Cc1cc(Cl)cc(S(=O)(=O)c2ccc(CNC(=O)c3cnc4[nH]ncc4c3)cc2)c1: 6.2
COc1cc(C)cc(S(=O)(=O)c2ccc(CNC(=O)c3cc4cnccc4[nH]3)cc2)c1: 9.6
O=C(NCc1ccc(S(=O)(=O)c2ccc(-n3cccn3)c(F)c2)cc1)c1cc2cnccc2[nH]1: 11

Now consider the entry below.
**Query** Item `CCCOc1cccc(S(=O)(=O)c2ccc(CNC(=O)c3cc4cnccc4[nH]3)cc2)c1` with NAMPT (Homo sapiens, UniProt P43490) - IC50?
**Result** 10.2

###

- test target: NAMPT (Homo sapiens)
- Construct: His tag; host or cells: E. coli
- assay comment: Biochemical inhibition assay: NAMPT enzymatic reaction, NMN quantified by mass spectrometry
- condition details: NAMPT enzymatic assay; read-out: Biochem IC50
pIC50: −log10 of the molar value.
Label Y when pIC50 is at or above 8; anything below gets N.

Consider the following illustrative entries.
O=C(NCc1ccc(S(=O)(=O)c2cc(Cl)ccc2OCC(F)(F)F)cc1)c1ccc2nccn2c1: Y
O=C(NCc1ccc(S(=O)(=O)c2cnc(N3CCCC3)s2)cc1)c1cnc2[nH]ncc2c1: Y

**Query** Tell me whether pIC50 is at least 8 here: `CN(C)CCc1cccc(S(=O)(=O)c2ccc(CNC(=O)c3cc4cnccc4[nH]3)cc2)c1`
**Result** N

**Query** And then `Cc1cc(Cl)cnc1S(=O)(=O)c1ccc(CNC(=O)c2cc3ccncc3s2)cc1` , what is it?
**Result** Y

**Query** `O=C(NCc1ccc(S(=O)(=O)c2cccc(N3CCOCC3)c2)cc1)c1cnc2nccn2c1` , same question.
**Result** Y
